System: MOLT-4 leukemia
Assay: NCI-60 one-dose screen, 48 h (100 = growth as untreated, 0 = no growth, -100 = all killed)
Details: 10 µM unless noted
The panel holds about 83,000 compounds, 20% with a hit somewhere; the sample as a whole holds those more often.
Quick rule: growth of at least 20% means t, below that means f.

Study these solved cases before continuing.
> print(dat)
                        structure.as.smiles  category
1  COC(=O)CNC(=O)c1cccc(-c2cc(=O)c3c(OC)c(OC)c(OC)cc3o2)c1         t
2        O=C(O)CC1CCN(c2ccc3nnc(Cl)n3n2)CC1         t
3  CS(=O)(=O)c1nccc(-c2c(-c3cccc(OCc4ccc(Cl)c(C(F)(F)F)c4)c3)nc3sccn23)n1         f
4  Cc1ccc2c(n1)C(=O)C(Cl)=C(Nc1cccc(C(F)(F)F)c1)C2=O         f
5  O=C(CSc1nc2ccccc2c(=O)n1-c1ccc(S(=O)(=O)Nc2ccc(Cl)nn2)cc1)Nc1ccc(S(=O)(=O)Nc2ccc(Cl)nn2)cc1         t

Request: Is growth for O=C(/C=C/c1cccc(F)c1)c1cccc(OCCCCOc2cccc(C(=O)/C=C/c3cccc(F)c3)c2)c1 at or above 20%?
Response: t

Request: Is growth for CSc1ccc(/C(=N/N=C(N)N)c2ccc(Cl)cc2)cc1 at or above 20%?
Response: f

Request: Is growth for CCOC(=O)c1cccnc1Nc1ccc(NC(=O)Nc2ccc(Cl)c(C(F)(F)F)c2)cc1 at or above 20%?
Response: t

Request: Is growth for CN(C)c1cccc2c(S(=O)(=O)Nc3cccc(-c4csc(NC(=O)CCCCCN5CCN(CCO)CC5)n4)c3)cccc12 at or above 20%?
Response: t

====

Test system: NCI-H226 lung
Experiment: NCI-60 one-dose screen, 48 h (100 = growth as untreated, 0 = no growth, -100 = all killed)
Conditions: 10 µM unless noted
Compounds without any hit were thinned out: in the full panel of roughly 83,000, 20% have a hit.
Task for the reader: assign each of the following molecules its reported growth.
Give bare numbers, in %.

Use the examples below as a reference point.
Molecule	Measurement unit	growth
COc1ccc(/C(=N\N=C(N)N)c2ccc(Cl)cc2)cc1OC	%	88.6
CCN(CC)c1ccc(/C=N/NC(=O)c2ccc(NS(C)(=O)=O)cc2)c(O)c1	%	39.3

# return growth for each item in the list
1. O=C1C(N2CCN(c3ccccc3)CC2)=C(Cl)C(=O)c2ncccc21
2. CC(C)(O)c1cncc(-c2ccc3ncc(C#N)c(N4CCc5cc(F)c(Cl)cc54)c3c2)c1
3. CC1=C(SCC(=O)OCCCCCC(C)C)C(=O)c2ccccc2C1=O
4. O=C1CSC(c2cn(-c3ccccc3)nc2-c2ccc(Cl)cc2)N1c1ccccc1 (stereo not given)
5. CCCCCC[n+]1ccc(SCC(=O)n2ccc3ccccc32)c2ccccc21
6. CC(=O)OC[C@@]12Oc3c(cccc3-c3ccc(O)c4c3O[C@]3(COC(C)=O)C(=C4O)C(=O)C[C@H](C)[C@@H]3OC(C)=O)C(O)=C1C(=O)C[C@H](C)[C@@H]2OC(C)=O
7. C[C@H](Nc1ncnc2ccc(-c3cnc(Cl)c(NS(C)(=O)=O)c3)cc12)c1ccccc1
8. CC1(C)C=Cc2cc(/C(N)=N/C(N)=N/c3nc4ccccc4s3)ccc2O1

Response:
1: 91.3; 2: -6.33; 3: 93.8; 4: 98.4; 5: 79.5; 6: 25.9; 7: 1.56; 8: 5.64
